Readings of Oat, Wild plant response rating for the listed compounds
# Tested on: oat, wild
# assay_notes: Test C preemergence
# Format: in vivo, Avena fatua
# measurement_conditions: Test C, preemergence, 125 g ai/ha; 0 to 100 scale (0 no effect, 100 complete control)
When you answer, write just the number.

These recorded examples may help you get a feel for the data.
compound=COC(=O)N(C)c1ncn(-c2cccc(C(=O)N3C[C@H](C)Oc4c(C)cccc43)c2)n1 measurement_type="Oat, Wild plant response rating" assay_result=20
compound=Cc1ccc(-n2cnc(C3(C)CCC3)n2)cc1C(=O)N1C[C@H](C)Oc2c(Cl)cccc21 measurement_type="Oat, Wild plant response rating" assay_result=20

Ask: Note Oat, Wild plant response rating for the compound shown: Cc1ccc(-n2cnc(C(C)C)n2)cc1C(=O)N1CC(C(F)(F)F)Oc2c(Cl)cccc21 (single isomer, unassigned) [Compound 292]
Result: 40

Ask: Note Oat, Wild plant response rating for the compound shown: COc1ncn(-c2cccc(C(=O)N3C[C@H](C)Oc4c(C)cccc43)c2)n1
Result: 50

Ask: Note Oat, Wild plant response rating for the compound shown: Cc1cccc2c1O[C@@H](C)CN2C(=O)c1cccc(-n2cnc(N)n2)c1
Result: 0

###

# Tested on: ragweed
# assay_notes: Test C postemergence
# Assay type: in vivo, Ambrosia artemisiifolia
# measurement_conditions: Postemergence, 500 g ai/ha, 10 days, visual 0 to 100 scale (0 no effect, 100 complete control)
Doc: threshold 70 (exclusive). Items with Plant response rating, Ragweed beneath it return true (1); others return false (0).

The following compounds have reported results that may help.
compound="Cc1ccc(-n2cnc(C(C)(C)C)n2)cc1C(=O)N1CC(C(F)(F)F)Oc2c(Cl)cccc21 (single isomer, unassigned)" qualitative_label="false (0)"
compound=Cc1cc(-n2cnc(C(C)C)n2)cc(C(=O)N2C[C@H](C)Oc3c(Cl)cccc32)c1Cl qualitative_label="true (1)"
compound=COc1c(C)cc(-n2cnc(C(C)C)n2)cc1C(=O)N1C[C@H](C)Oc2c(Cl)cccc21 qualitative_label="true (1)"
compound=COc1ccc(-n2cnc(C(C)C)n2)cc1C(=O)N1C[C@H](C)Oc2c(C)cccc21 qualitative_label="false (0)"
compound=CC(C)c1ncn(-c2ccc(SC(F)(F)F)c(C(=O)N3C[C@H](C)Oc4c(Cl)cccc43)c2)n1 qualitative_label="true (1)"
compound=CCc1ncn(-c2cc3c(c(C(=O)N4C[C@H](C)Oc5c(Cl)cccc54)c2)OCCO3)n1 qualitative_label="false (0)"
compound=C[C@H]1CN(C(=O)c2cc(-n3cncn3)cc3c2OCCO3)c2cccc(Cl)c2O1 qualitative_label="false (0)"
compound=CC(C)c1ncn(-c2cc3c(c(C(=O)N4C[C@H](C)Oc5c(Cl)cccc54)c2)OCCO3)n1 qualitative_label="false (0)"
compound=CCn1cnc(-c2cccc(C(=O)N3C[C@H](C)Oc4c(C)cccc43)c2)n1 qualitative_label="true (1)"
compound=C[C@H]1CN(C(=O)c2cc(-n3cnc(C4CC4)n3)cc3c2OCCO3)c2cccc(Cl)c2O1 qualitative_label="false (0)"

Ask: In plain terms, does COC[C@H]1CN(C(=O)c2cc(-n3cncn3)ccc2C)c2cccc(Cl)c2O1 come in under 70 for Plant response rating, Ragweed?
Result: false (0)

Ask: In plain terms, does C[C@H]1CN(C(=O)c2cc(-n3cnc(C(C)(C)C)n3)cc3c2OCCO3)c2cccc(Cl)c2O1 come in under 70 for Plant response rating, Ragweed?
Result: false (0)

Ask: In plain terms, does Cc1ccc(-n2cnc(C3CCC3)n2)cc1C(=O)N1CC(C(F)(F)F)Oc2c(Cl)cccc21 (single isomer, unassigned) come in under 70 for Plant response rating, Ragweed?
Result: false (0)

###

# Tested on: foxtail, giant
# assay_notes: Test A preemergence
# Type: in vivo, Setaria faberi
# measurement_conditions: 1000 g ai/ha, 0 to 100 scale (0 no effect, 100 complete control), 10 days
measurement_type: Plant response rating, Foxtail, Giant
When you answer, write just the number.

These recorded examples may help you get a feel for the data.
smiles=C[C@H]1CN(C(=O)c2cccc(-n3cncn3)c2)c2cc([N+](=O)[O-])ccc2O1 measurement_type="Plant response rating, Foxtail, Giant" assay_result=20
smiles=Cc1nc(-c2cccc(C(=O)N3C[C@H](C)Oc4c(Cl)cccc43)c2)cs1 measurement_type="Plant response rating, Foxtail, Giant" assay_result=20

Ask: Note Plant response rating, Foxtail, Giant for the compound shown: Cc1nc(-c2cccc(C(=O)N3C[C@H](C)Oc4c(Cl)cccc43)c2)no1
Result: 20

###

# Test system: barnyardgrass
# assay_notes: Test D flooded paddy test
# Format: in vivo, Echinochloa crus-galli
# measurement_conditions: 250 g ai/ha, applied to paddy water, visual rating after 13 to 14 days, scale 0 to 100 (0 no effect, 100 complete control)
Classification field: enter met for Plant response rating, Barnyardgrass (Flood) values not below 20, not met for values below it.

Ask: Quick check, Plant response rating, Barnyardgrass (Flood) >= 20? COc1ccc(-n2cnc(C(C)(C)O)n2)cc1C(=O)N1C[C@H](C)Oc2c(C)cccc21 [Compound 280]
Result: met

Ask: Quick check, Plant response rating, Barnyardgrass (Flood) >= 20? Cc1ccc(-n2cnc(CC#N)n2)cc1C(=O)N1C[C@H](C)Oc2c(Cl)cccc21 [Compound 364]
Result: not met

Ask: Quick check, Plant response rating, Barnyardgrass (Flood) >= 20? Cc1cccc2c1O[C@@H](C)CN2C(=O)c1cc(-n2cnc(C(C)C)n2)cc2ccoc12 [Compound 227]
Result: met

Ask: Quick check, Plant response rating, Barnyardgrass (Flood) >= 20? Cc1ccc(-n2cnc(C(C)C)n2)cc1C(=O)N1CC(C(F)(F)F)Oc2c(Cl)cccc21 (stereo not shown) [Compound 354]
Result: not met

Ask: Quick check, Plant response rating, Barnyardgrass (Flood) >= 20? CC(C)(C)c1ncn(-c2cc(C(=O)N3CC(C(F)(F)F)Oc4c(Cl)cccc43)ccn2)n1 (stereo not shown) [Compound 322]
Result: not met

Ask: Quick check, Plant response rating, Barnyardgrass (Flood) >= 20? Cc1cccc2c1O[C@@H](C)CN2C(=O)c1cc(-n2cnc(C(C)C)n2)cc2occc12 [Compound 195]
Result: met

Ask: Quick check, Plant response rating, Barnyardgrass (Flood) >= 20? CC(C)c1ncn(-c2cc(C(=O)N3CC(C(F)(F)F)Oc4c(Cl)cccc43)ccn2)n1 (racemic) [Compound 329]
Result: not met

Ask: Quick check, Plant response rating, Barnyardgrass (Flood) >= 20? Cc1cccc2c1OC(C(F)(F)F)CN2C(=O)c1ccnc(-n2cnc(C(C)(C)C)n2)c1 (stereo not shown) [Compound 319]
Result: not met

Ask: Quick check, Plant response rating, Barnyardgrass (Flood) >= 20? Cc1ccc(-n2cnc(CS(C)(=N)=O)n2)cc1C(=O)N1C[C@H](C)Oc2c(Cl)cccc21 (stereo partly shown) [Compound 403]
Result: not met

Ask: Quick check, Plant response rating, Barnyardgrass (Flood) >= 20? CCOC[C@H]1CN(C(=O)c2cc(-n3cnc(C4CCC4)n3)cc3c2OCCO3)c2cccc(Cl)c2O1 [Compound 386]
Result: not met

Ask: Quick check, Plant response rating, Barnyardgrass (Flood) >= 20? CCc1ncn(-c2cc(C(=O)N3CC(C(F)(F)F)Oc4c(C)cccc43)ccn2)n1 (stereo not shown) [Compound 318]
Result: met

Ask: Quick check, Plant response rating, Barnyardgrass (Flood) >= 20? CCOC[C@H]1CN(C(=O)c2cc(-n3cnc(C(C)(C)C)n3)ccc2C)c2cccc(Cl)c2O1 [Compound 413]
Result: met

###

# System: foxtail, giant
# assay_notes: Test A postemergence
# Type: in vivo, Setaria faberi
# measurement_conditions: 500 g ai/ha, postemergence, 10 days, visual injury, 0 to 100 scale (0 no effect, 100 complete control)
measurement_type: Plant response rating, Foxtail, Giant
When you answer, write just the number.

These recorded examples may help you get a feel for the data.
molecule="C[C@H]1CN(C(=O)c2cc(Br)cc(-n3cncn3)c2)c2cccc(Cl)c2O1 [Compound 114]" measured_target="foxtail, giant" assay_result=90
molecule="Cc1ccc(-n2cnc(C(C)C)n2)cc1C(=O)N1C[C@H](C)Oc2c(C)cccc21 [Compound 99]" measured_target="foxtail, giant" assay_result=90
molecule="CC(C)c1ncn(-c2ccc(O)c(C(=O)N3C[C@H](C)Oc4c(Cl)cccc43)c2)n1 [Compound 105]" measured_target="foxtail, giant" assay_result=80
molecule="CCc1ncn(-c2ccc(C)c(C(=O)N3C[C@H](C)Oc4c(C)cccc43)c2)n1 [Compound 98]" measured_target="foxtail, giant" assay_result=90

Turning now to a further record.
Ask: Note Plant response rating, Foxtail, Giant for the molecule shown: Cc1cccc2c1O[C@@H](C)CN2C(=O)c1cccc(-n2cnc(C(F)(F)F)n2)c1 [Compound 66]
Result: 90

###

# Test system: barnyardgrass
# assay_notes: Test D flooded paddy test
# Format: in vivo, Echinochloa crus-galli
# measurement_conditions: 250 g ai/ha, applied to paddy water, visual rating after 13 to 14 days, scale 0 to 100 (0 no effect, 100 complete control)
# Description: Plant species in the flooded paddy test selected from barnyardgrass (Echinochloa crus-galli), ducksalad (Heteranthera limosa), rice (Oryza sativa), and sedge, umbrella (small-flower umbrella sedge, Cyperus difformis) were grown to the 2-leaf stage for testing. […] Treated plants and controls were maintained in a greenhouse for 13 to 14 days, after which time all species were compared to controls and visually evaluated. […]
Readings of Plant response rating, Barnyardgrass (Flood) for the listed compounds
When you answer, write just the number.

These recorded examples may help you get a feel for the data.
compound=COC[C@H]1CN(C(=O)c2cc(-n3cnc(C(C)(C)O)n3)ccc2OC)c2cccc(Cl)c2O1 measured_target=barnyardgrass assay_result=10
compound="Cc1cccc2c1OC(C(F)(F)F)CN2C(=O)c1ccnc(-n2cnc(C(C)C)n2)c1 (single isomer, unassigned)" measured_target=barnyardgrass assay_result=0
compound=C[C@H]1CN(C(=O)c2cc(-n3cncn3)cc3c2OCCO3)c2cccc(Cl)c2O1 measured_target=barnyardgrass assay_result=35
compound=COC[C@H]1CN(C(=O)c2cc(-n3cnc(C(C)C)n3)ccc2OC)c2cccc(Cl)c2O1 measured_target=barnyardgrass assay_result=15

Ask: Note Plant response rating, Barnyardgrass (Flood) for the compound shown: CNc1ncn(-c2cccc(C(=O)N3C[C@H](C)Oc4c(C)cccc43)c2)n1
Result: 0
